Source listed as paper PMC3961306.

%-inhibition of PRKX for assorted compounds
# system_under_test: panel of more than 300 wild-type and mutant kinases (313 kinase panel) (Homo sapiens)
# Sequence (P51817 1-358): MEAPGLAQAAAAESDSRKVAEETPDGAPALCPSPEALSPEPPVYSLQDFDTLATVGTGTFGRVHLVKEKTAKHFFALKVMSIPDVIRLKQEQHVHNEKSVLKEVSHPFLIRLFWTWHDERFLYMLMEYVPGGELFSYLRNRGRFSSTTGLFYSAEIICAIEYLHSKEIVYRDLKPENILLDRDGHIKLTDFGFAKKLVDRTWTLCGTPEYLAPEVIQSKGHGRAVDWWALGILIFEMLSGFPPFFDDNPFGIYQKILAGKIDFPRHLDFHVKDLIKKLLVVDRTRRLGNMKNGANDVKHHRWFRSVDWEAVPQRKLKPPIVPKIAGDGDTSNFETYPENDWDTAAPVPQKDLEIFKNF
# protocol_text: Kinase profiling in a biochemical assay panel (mobility shift assays and ELISA), %-inhibition at 1 μM; selectivity entropy
# condition_summary: kinase PRKX; 1 μM
Give your result in % as a bare value.

- structure_notation: "CC(C)(C)c1nc(-c2cccc(NS(=O)(=O)c3c(F)cccc3F)c2F)c(-c2ccnc(N)n2)s1"
  system_under_test: "panel of more than 300 wild-type and mutant kinases (313 kinase panel) (Homo sapiens)"
  endpoint_result: -1.55

Form: Entry = N#CC[C@H](C1CCCC1)n1cc(-c2ncnc3[nH]ccc23)cn1 | System = panel of more than 300 wild-type and mutant kinases (313 kinase panel) (Homo sapiens) | %-inhibition of PRKX = ____
16

Form: Entry = CS(=O)(=O)CCNCc1ccc(-c2ccc3ncnc(Nc4ccc(OCc5cccc(F)c5)c(Cl)c4)c3c2)o1 | System = panel of more than 300 wild-type and mutant kinases (313 kinase panel) (Homo sapiens) | %-inhibition of PRKX = ____
0.493

Form: Entry = CC(=O)Nc1cccc(-n2c(=O)n(C3CC3)c(=O)c3c(Nc4ccc(I)cc4F)n(C)c(=O)c(C)c32)c1 | System = panel of more than 300 wild-type and mutant kinases (313 kinase panel) (Homo sapiens) | %-inhibition of PRKX = ____
-1.19

Form: Entry = C[C@@H](Oc1cc(-c2cnn(C3CCNCC3)c2)cnc1N)c1c(Cl)ccc(F)c1Cl | System = panel of more than 300 wild-type and mutant kinases (313 kinase panel) (Homo sapiens) | %-inhibition of PRKX = ____
-7

* * *

# system_under_test: panel of more than 300 wild-type and mutant kinases (313 kinase panel) (Homo sapiens)
# Sequence (Q13043 1-487): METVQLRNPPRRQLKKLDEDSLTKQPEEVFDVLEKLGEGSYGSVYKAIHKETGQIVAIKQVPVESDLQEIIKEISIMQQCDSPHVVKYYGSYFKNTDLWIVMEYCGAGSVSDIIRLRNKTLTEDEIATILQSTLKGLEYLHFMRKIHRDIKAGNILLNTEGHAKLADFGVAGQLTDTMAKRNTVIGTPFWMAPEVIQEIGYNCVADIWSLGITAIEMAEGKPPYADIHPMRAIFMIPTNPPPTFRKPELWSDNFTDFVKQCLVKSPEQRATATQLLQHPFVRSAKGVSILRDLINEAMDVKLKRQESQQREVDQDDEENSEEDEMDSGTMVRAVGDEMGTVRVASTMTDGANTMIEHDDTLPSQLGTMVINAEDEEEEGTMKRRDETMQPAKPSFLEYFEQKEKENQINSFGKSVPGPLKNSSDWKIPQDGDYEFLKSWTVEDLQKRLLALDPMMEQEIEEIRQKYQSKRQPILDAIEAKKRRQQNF
# protocol_text: Kinase profiling in a biochemical assay panel (mobility shift assays and ELISA), %-inhibition at 1 μM; selectivity entropy
# condition_summary: kinase MST1; 1 μM
measured_endpoint: %-inhibition of MST1 (%)
Give your result in % as a bare value.

- molecule: "Cc1ccc(Nc2nccc(N(C)c3ccc4c(C)n(C)nc4c3)n2)cc1S(N)(=O)=O"
  system_under_test: "panel of more than 300 wild-type and mutant kinases (313 kinase panel) (Homo sapiens)"
  %-inhibition of MST1 / %: 2

Find the recorded %-inhibition of MST1 belonging to CO[C@H]1C[C@@H]2CC[C@@H](C)[C@@](O)(O2)C(=O)C(=O)N2CCCC[C@H]2C(=O)O[C@H]([C@H](C)C[C@@H]2CC[C@@H](OC(=O)C(C)(CO)CO)[C@H](OC)C2)CC(=O)[C@H](C)/C=C(\C)[C@@H](O)[C@@H](OC)C(=O)[C@H](C)C[C@H](C)/C=C/C=C/C=C/1C and report it.
-2.42

Find the recorded %-inhibition of MST1 belonging to O=S(=O)(c1cccc2cnccc12)N1CCCNCC1 and report it.
10

Find the recorded %-inhibition of MST1 belonging to COc1cc2nccc(Oc3ccc(NC(=O)C4(C(=O)Nc5ccc(F)cc5)CC4)cc3)c2cc1OC [cabozantinib] and report it.
6

Find the recorded %-inhibition of MST1 belonging to CCCS(=O)(=O)Nc1ccc(F)c(C(=O)c2c[nH]c3ncc(-c4ccc(Cl)cc4)cc23)c1F and report it.
51
